Catalogue of Inhibition values
- Tested on: Cryptococcus neoformans
- measurement.conditions: Concentration 20 uM; ASSAY_TEST Inhibition of Fungal Growth; detection method Resazurin; Absorption (OD600-OD570); plate type 384well; NBS; CORNING #3640
- Description: Antifungal activity against Cryptococcus neoformans H99 ATCC 208821 (CO-ADD:FG_002); MIC in YNB media using NBS plates, by Resazurin OD(600-570)
Measured potencies and affinities stand elsewhere.
Give just the numeric value; % need not be written.

Record excerpt, results attached:
COc1ccccc1NC(=O)Oc1cccc(OC(=O)c2ccccc2)c1 : -0.97
[Cl-].c1ccc(-c2nn(-c3ccccc3)[n+](-c3ccccc3)n2)cc1 [TETRAZOLIUM RED] : -6.85
COC(=O)c1nc(-c2ccc3c(n2)C(=O)C(N)=C(OC)C3=O)c(N)c(-c2ccc(OC)c(OC)c2O)c1C : 0.31
CNC(=O)Oc1c(O)ccnc1C : -9.19

# next molecule below
Query :: Give the measured Inhibition for COc1c(OP2(=S)OCC(C)(C)CO2)cnn(C2CCCCC2)c1=O
Result :: -6

====

- Test system: Candida albicans
- measurement.conditions: 20 µM
- Description: Antifungal activity against Candida albicans ATCC 90028 (CO-ADD:FG_001); MIC in YNB media using NBS plates, by OD630
Results with a measured potency or affinity are listed apart.
Catalogue of Inhibition values
Give just the numeric value; % need not be written.

Record excerpt, results attached:
CC(=O)OC1CCC2(C)C(CCC3C2CC(=O)C2(C)C3CC(N3CC3)C2C(C)=O)C1 (centres undefined) : -0.96
CC(=O)Nc1cccc([As](=O)(c2cccc(NC(C)=O)c2)c2cccc(NC(C)=O)c2)c1 : 0.37
CC(C)CC(NC=O)C(=O)O.COc1cc2c(cc1OC)C13CCN4CC5=CCOC6CC(=O)N2C1C6C5CC43 (centres undefined) : -1.26
CN1CCC2(O)OCCCC2C1 (centres undefined) : 1.09
C=C1C/C(=C/C)C(=O)O[C@@H]2CCN3CC=C(COC(=O)[C@]1(C)O)[C@H]23 : -1.29
CCN(CC)c1ccc(C=C2C(=O)NC(=S)NC2=O)cc1 : 19.4
O=[N+]([O-])c1cc(-c2ccc([As](=O)(O)O)cc2)ccc1[As](=O)(O)O : 0.95
CN1C(=O)CC[C@@]2(C)C1=CC[C@@H]1[C@@H]2CC[C@@]2(C)[C@H]1CC[C@]2(C)O : -0.13

Query :: Give the measured Inhibition for COc1ccccc1[As](=O)(O)CC(O)COc1ccc(Cl)cc1Cl (centres undefined)
Result :: -1.45

====

- Tested on: Escherichia coli
- assay.remarks: Antibacterial activity against Escherichia coli ATCC 25922 (CO-ADD:GN_001); MIC in CAMBH media using NBS plates, by Resazurin F(560/590)
- Format: functional
- measurement.conditions: Concentration 20 uM, ASSAY_TEST Inhibition of Bacterial Growth, detection method Resazurin, Fluorescence (ex560/em590), MEDIA CAMHB, plate type 384well, CORNING #3640, time 18 hr
Catalogue of Inhibition values
Give just the numeric value; % need not be written.

Record excerpt, results attached:
COC(=O)c1nc(-c2ccc3c(n2)C(=O)C(N)=C(OC)C3=O)c(N)c(-c2ccc(OC)c(OC)c2O)c1C : 8.8
CN1CCc2cc3c(cc2C1)OCO3 : 11.12
CN1C2c3ccccc3C3C4c5ccccc5C(C31)C(C2[N+](=O)[O-])N4C (stereo not given) : 9.05
Cn1cc(C=O)c2nccnc21 : -9.44
C[C@H]1[C@H](C)N1CC(O)Cn1ccnc1[N+](=O)[O-] (stereo not given in full) : -2.75
O=C(NC(=O)c1c(F)cccc1F)Nc1cc(Cl)c(F)c(Cl)c1F [TEFLUBENZURON] : 15.1

Query :: Give the measured Inhibition for ClC1=C(Cl)C(Cl)=C(Cl)C1=C/C=C/c1ccccc1
Result :: -15.65

Query :: Give the measured Inhibition for Cc1c(C(=O)c2ccccc2)c2ccccc2n1C
Result :: 13.79

Query :: Give the measured Inhibition for Cc1ccc2cc3c(ccc4ccccc43)c3c2c1CC3 [3-METHYLCHOLANTHRENE]
Result :: 10.1

Query :: Give the measured Inhibition for COc1ccc(C2=CC(c3ccc(OC)c(OC)c3)c3c(c4ccccc4oc3=O)O2)cc1OC (stereo not given)
Result :: 10.7

Query :: Give the measured Inhibition for Cc1nc(C)c(C(=O)N/N=C/c2ccc(N(CCCl)CCCl)cc2)s1
Result :: 1.76
